Reference for the values: ChEMBL document CHEMBL1649292

# Tested on: Trypanosoma evansi
# test-protocol: Antimicrobial activity against Trypanosoma evansi STIB 806K infected in NMRI mouse assessed as host survival days at 0.5 mg/kg, ip administered 3 to 6 days after infection for 4 consecutive days
# Format: functional
# condition-set: route intraperitoneal
Listing of recorded Survival by entry.
// return the numeric value with its unit appended

molecule: Cc1cc(C(=N)N)ccc1-c1ccc(-c2nc3ccc(C(=N)N)cc3[nH]2)o1
reported-result: 16 days
//
molecule: N=C(N)c1ccc(-c2ccc(-c3ccc(C(=N)N)nc3)o2)nc1
reported-result: 60 days

Data point: "N=C(N)c1ccc(-c2ccc(-c3ccc(C(=N)N)cn3)o2)cc1" ; Survival = 60 days

Data point: "N=C(N)c1ccc(-c2ccc(-c3ccc(C(=N)N)cc3O)o2)cc1" ; Survival = 60 days

Data point: "COc1cc(-c2ccc(C(=N)N)cc2)c(OC)cc1-c1ccc(C(=N)N)cc1" ; Survival = 7 days

Data point: "CNC(=N)Nc1ccc(-c2ccc(-c3ccc(NC(=N)NC)cc3)cc2)cc1" ; Survival = 13 days

Data point: Cc1cc(=N)c2ccc(Nc3cc(C)[n+](C)c(N)n3)cc2n1C.O=S(=O)([O-])O [QUINAPYRAMINE SULFATE] ; Survival = 57 days
